Target: FLT3(R834Q) (Homo sapiens (Human), UniProt P36888, R834Q)
Assay: KINOMEscan binding, FLT3(R834Q)
experimental_endpoint: pKd
Units for pKd: none; it is -log10 of a concentration expressed in mol/L.

// query Please look up its pKd: COc1cc(N2CCC(N(C)C)CC2)ccc1Nc1ncc(Cl)c(Nc2ccccc2NS(C)(=O)=O)n1
// result 7.72

// query Consider next the compound COc1cc(N2CCC(N3CCN(C)CC3)CC2)ccc1Nc1ncc(Cl)c(Nc2ccccc2NS(C)(=O)=O)n1 in the same way.
// result 7.48

* * *

Target: EGFR del19 (Homo sapiens (Human), UniProt P00533, DEL746-750)
Sequence (P00533 other isoform, or with tags, fused parts or gaps del 1-668/del 746-750 limits assumed): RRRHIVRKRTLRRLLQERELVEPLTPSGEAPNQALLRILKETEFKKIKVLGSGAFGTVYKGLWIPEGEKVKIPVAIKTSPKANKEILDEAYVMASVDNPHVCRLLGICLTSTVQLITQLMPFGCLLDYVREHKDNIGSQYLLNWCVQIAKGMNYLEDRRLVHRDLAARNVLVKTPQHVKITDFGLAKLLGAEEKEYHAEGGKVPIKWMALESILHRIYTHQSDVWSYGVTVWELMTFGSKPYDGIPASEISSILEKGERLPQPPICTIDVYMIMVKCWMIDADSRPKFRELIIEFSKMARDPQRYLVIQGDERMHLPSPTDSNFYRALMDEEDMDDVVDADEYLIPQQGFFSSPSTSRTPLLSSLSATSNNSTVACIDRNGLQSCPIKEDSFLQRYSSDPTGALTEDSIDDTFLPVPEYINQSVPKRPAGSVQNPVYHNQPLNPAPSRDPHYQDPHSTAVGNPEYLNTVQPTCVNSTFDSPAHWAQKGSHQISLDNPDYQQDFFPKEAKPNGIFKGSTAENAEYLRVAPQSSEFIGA
Assay: HTRF enzyme assay, EGFR del19
Settings: recombinant enzyme
pIC50: −log10 of the molar value.
Returns one of satisfied or not satisfied; satisfied when pIC50 is >= 8.

// query Quick check: does COc1cc(N2CCC(N3CCN(C(C)=O)CC3)CC2)ccc1Nc1ncc(Cl)c(Nc2ccccc2NS(C)(=O)=O)n1 [Example 19] have pIC50 greater than or equal to 8?
// result satisfied

// query Try the molecule COc1cc(N2CCN(C)CC2)ccc1Nc1ncc(Cl)c(Nc2ccccc2NS(C)(=O)=O)n1 [Example 28]
// result satisfied

// query Next molecule: COc1cc(C2CCNCC2)ccc1Nc1ncc(C(F)(F)F)c(Nc2ccccc2NS(C)(=O)=O)n1 [Example 5]
// result not satisfied

// query Another molecule: COc1cc(C2CCNCC2)ccc1Nc1ncc(Br)c(Nc2ccccc2NS(C)(=O)=O)n1 [Example 3]
// result not satisfied

// query Try this molecule too: COc1cc(N2CCNCC2)ccc1Nc1ncc(C(F)(F)F)c(Nc2ccccc2NS(C)(=O)=O)n1 [Example 31]
// result not satisfied

// query Would you kindly repeat that for COc1cc(N2CCN(C3CCN(C)CC3)CC2)ccc1Nc1ncc(Cl)c(Nc2ccccc2NS(C)(=O)=O)n1 [Example 25] ?
// result satisfied

Where these numbers come from: patent US11253516B2
